test system: MALME-3M melanoma; assay: NCI tumour cell line growth inhibition, 48 h
Readout Name: TGI

// known answers, use as guide
CC1(C)OCC(C2OC(OC(=O)c3ccc([N+](=O)[O-])cc3)C3OC(C)(C)OC23)O1 (stereo unspecified) ... > 100 µM
CSc1nc2c(nc(N)n2C2OC(COC(C)=O)C(OC(C)=O)C(OC(C)=O)C2OC(C)=O)c(=O)n1C (stereo unspecified) ... > 100 µM
N#CCOc1ccc(/C=C/C(=O)c2ccc(Cl)cc2)cc1 ... 58.4 µM

Reported TGI ( CSc1ccc(OCC2OC2O)cc1 (stereo unspecified) ) = > 100 µM

Reported TGI ( CC1=C(C(=O)Nc2ccc3[nH]ncc3c2)C(c2ccc(Cl)c(Cl)c2)CC(=O)N1 (stereo unspecified) ) = > 25 µM

Reported TGI ( `c1ccc(N=c2nc(N3CCOCC3)ss2)cc1` ) = 28.8 µM

Reported TGI ( Cc1ccc2c(c1)C1(OC(=O)c3ccccc31)c1ccc(F)cc1O2 (stereo unspecified) ) = > 100 µM
